System: Escherichia coli
assay_remarks: Antimicrobial activity against Escherichia coli
Format: functional
Reported values of MIC for individual entries
measured_quantity: MIC (µM)

compound="CC(C)C[C@@H]1NC(=O)[C@@H](Cc2ccccc2)NC(=O)[C@H](CCN)NC(=O)[C@@H](NC(=O)[C@H](CCN)NC(=O)[C@@H](NC(=O)[C@H](CO)NC(=O)O)[C@@H](C)O)CCNC(=O)[C@H]([C@@H](C)O)NC(=O)[C@H](CCN)NC(=O)[C@H](CCN)NC1=O [DESFA-[SER1]POLYMYXIN B]" system_name="Escherichia coli" unit_of_measurement=µM numeric_readout=64
compound=CCCCCCCC(=O)N[C@@H](CCN)C(=O)N[C@H](C(=O)N[C@@H](CCN)C(=O)N[C@H]1CCNC(=O)[C@H]([C@@H](C)O)NC(=O)[C@H](CCN)NC(=O)[C@H](CCN)NC(=O)[C@H](Cc2c[nH]c3ccccc23)NC(=O)[C@@H](Cc2ccccc2)NC(=O)[C@H](CCN)NC1=O)[C@@H](C)O system_name="Escherichia coli" unit_of_measurement=µM numeric_readout=2
compound=CC(C)C[C@@H]1NC(=O)[C@@H](Cc2ccccc2)NC(=O)[C@H](CCN)NC(=O)[C@@H](NC(=O)[C@H](CCN)NC(=O)[C@@H](NC(=O)[C@H](CCN)NC(=O)CCCC2CCCCC2)[C@@H](C)O)CCNC(=O)[C@H]([C@@H](C)O)NC(=O)[C@H](CCN)NC(=O)[C@H](CCN)NC1=O system_name="Escherichia coli" unit_of_measurement=µM numeric_readout=0.5
compound=CCCCCCCC(=O)N[C@@H](CCNS(=O)(=O)c1cccc2c(N(C)C)cccc12)C(=O)N[C@H](C(=O)N[C@@H](CCN)C(=O)N[C@H]1CCNC(=O)[C@H]([C@@H](C)O)NC(=O)[C@H](CCN)NC(=O)[C@H](CCN)NC(=O)[C@H](CC(C)C)NC(=O)[C@@H](Cc2ccccc2)NC(=O)[C@H](CCN)NC1=O)[C@@H](C)O system_name="Escherichia coli" unit_of_measurement=µM numeric_readout=1

----------
System: Escherichia coli
assay_remarks: Antimicrobial activity against Escherichia coli assessed as relative sensitizing activity
Type: functional
measured_quantity: Activity

substance_smiles=CC(C)C[C@@H]1NC(=O)[C@@H](Cc2ccccc2)NC(=O)[C@H](CCCN)NC(=O)CN(C(=O)[C@H](CCCN)NC(=O)[C@@H](N)[C@@H](C)O)CCCNC(=O)[C@@H]([C@H](C)O)NC(=O)[C@H](CCCN)NC(=O)[C@H](CCCN)NC1=O result=2%
substance_smiles=CC(C)C[C@@H]1NC(=O)[C@@H](Cc2ccccc2)NC(=O)[C@H](CCCCN)NC(=O)CN(C(=O)[C@H](CCCCN)NC(=O)[C@@H](N)[C@@H](C)O)CCCCNC(=O)[C@@H]([C@H](C)O)NC(=O)[C@H](CCCCN)NC(=O)[C@H](CCCCN)NC1=O result=4%
substance_smiles=CC(C)C[C@@H]1NC(=O)[C@@H](Cc2ccccc2)NC(=O)[C@H](CC(=N)N)NC(=O)[C@@H](NC(=O)[C@H](CC(=N)N)NC(=O)[C@@H](N)[C@@H](C)O)CCNC(=O)[C@H]([C@@H](C)O)NC(=O)[C@H](CC(=N)N)NC(=O)[C@H](CC(=N)N)NC1=O result=25%
